Ok so here's the combined literature set: IC50 for 11-beta-hydroxysteroid dehydrogenase 1 (Mus musculus).
Just the number please, in nM, no unit attached.

Record lookup: for 11-beta-hydroxysteroid dehydrogenase 1 (Mus musculus), what IC50 belongs to O=C(N1CCC2(c3c[nH]c4ncccc34)CC12)C1(c2ccc(Cl)cc2)CC1 (stereo not shown) ?
1540

Record lookup: for 11-beta-hydroxysteroid dehydrogenase 1 (Mus musculus), what IC50 belongs to COC(C)c1ccc(S(=O)(=O)N2CC3(C)CC2CC(C)(C)C3)cc1 (stereo not shown) ?
27

Record lookup: for 11-beta-hydroxysteroid dehydrogenase 1 (Mus musculus), what IC50 belongs to CC(C)(C)OC(=O)N1CCCN(S(=O)(=O)c2ccc(C(C)(C)C)cc2)CC1 ?
2760

---

Ok so here's the combined literature set: IC50 for 11-beta-hydroxysteroid dehydrogenase 1 (Mus musculus, UniProt P50172).

Return reported IC50; argument: CC(C)COc1c(C(=O)NC2C3CC4CC2CC(O)(C4)C3)cnn1C=CC(C)(C)NC(=O)COCc1ccccc1 (stereo not shown)
0.23 nM

Return reported IC50; argument: CC1(C)CC2CC(C)(CN2S(=O)(=O)c2ccc(-c3cnco3)cc2)C1 (stereo not shown)
309 nM

Return reported IC50; argument: CC(=O)NC(C)(C)/C=C/n1ncc(C(=O)N[C@H]2C3CC4CC2C[C@](CO)(C4)C3)c1CC(C)C
4.9 nM

Return reported IC50; argument: CC(=O)N1CCCN(S(=O)(=O)c2ccc(C(C)(C)C)cc2)CC1
2540 nM

Return reported IC50; argument: CCCCS(=O)(=O)N1CCC(c2nc(C(=O)N3CCCC4CCCCC43)cs2)CC1 (stereo not shown)
210 nM

Return reported IC50; argument: CC(C)COc1c(C(=O)N[C@H]2C3CC4CC2C[C@](OC(N)=O)(C4)C3)cnn1/C=C/C(C)(C)C#N
0.41 nM

Return reported IC50; argument: CC(C)(C)c1ccc(S(=O)(=O)N2CCCN(C3CC4CCC3C4)CC2)cc1 (stereo not shown)
102 nM

Return reported IC50; argument: CC(C)COc1c(C(=O)N[C@H]2C3CC4CC2C[C@](CO)(C4)C3)cnn1/C=C/C(C)(C)C(N)=O
0.21 nM

Return reported IC50; argument: O=C(C1CCCC1)N1CCC(c2nc(C(=O)N3CCCC4CCCCC43)cs2)CC1 (stereo not shown)
490 nM

Return reported IC50; argument: CC1(C)CC2CC(C)(CN2S(=O)(=O)c2ccc(C(C)(C)O)cc2)C1 (stereo not shown)
43 nM

Return reported IC50; argument: CCC(C)(O)c1ccc(S(=O)(=O)N2CC3(C)CC2CC(C)(C)C3)cc1 (stereo not shown)
68 nM

Return reported IC50; argument: CC1(C)CC2CC(C)(CN2S(=O)(=O)c2ccc(C(F)(F)F)cc2)C1 (stereo not shown)
686 nM

Return reported IC50; argument: CCN(C[C@@H]1CN(C2CCCCCCC2)C(=O)O1)S(=O)(=O)c1ccccc1
8400 nM

Return reported IC50; argument: CC(=O)c1ccc(S(=O)(=O)N2CC3(C)CC2CC(C)(C)C3)cc1 (stereo not shown)
732 nM

Return reported IC50; argument: CC1(C)CC2CC(C)(CN2S(=O)(=O)c2ccc(I)cc2)C1 (stereo not shown)
3170 nM

Return reported IC50; argument: COC1CCCN(S(=O)(=O)c2ccc(C(C)(C)C)cc2)CC1 (stereo not shown)
165 nM

Return reported IC50; argument: CC1(C)CC2CC(C)(CN2S(=O)(=O)c2ccc(C3CCCCC3)cc2)C1 (stereo not shown)
165 nM

Return reported IC50; argument: CCc1ccc(S(=O)(=O)N2CC3(C)CC2CC(C)(C)C3)cc1 (stereo not shown)
420 nM

Return reported IC50; argument: CCOC(C)c1ccc(S(=O)(=O)N2CC3(C)CC2CC(C)(C)C3)cc1 (stereo not shown)
87 nM

Return reported IC50; argument: CC1(C)CC2CC(C)(CN2S(=O)(=O)c2ccc(C#N)cc2)C1 (stereo not shown)
1820 nM

Return reported IC50; argument: CCCCCNC(=O)N1CCC(c2nc(C(=O)N3CCCC4CCCCC43)cs2)CC1 (stereo not shown)
59 nM

Return reported IC50; argument: CC1(C)CC2CC(C)(CN2S(=O)(=O)c2ccccc2C#N)C1 (stereo not shown)
13300 nM

Return reported IC50; argument: CC1(C)CC2CC(C)(CN2S(=O)(=O)c2ccc(-c3csnn3)cc2)C1 (stereo not shown)
305 nM

Return reported IC50; argument: CCN(C1=NC(=O)C2CC(C)(C)CCC2S1)c1ccccc1C(C)(C)C (stereo not shown)
820 nM

Return reported IC50; argument: CC(C)COc1c(C(=O)N[C@H]2C3CC4CC2C[C@](O)(C4)C3)cnn1/C=C/C(C)(C)NC(=O)CCC1CCCC1
1 nM

Return reported IC50; argument: COc1ccc(S(=O)(=O)N2CC=C(c3ccccc3)CCC2)cc1
1550 nM

Return reported IC50; argument: COC(=O)NC(C)(C)/C=C/n1ncc(C(=O)N[C@H]2C3CC4CC2C[C@](O)(C4)C3)c1-n1cccn1
0.52 nM

Return reported IC50; argument: COC(C)(C)c1ccc(S(=O)(=O)N2CC3CC(C)(C2)CC3(C)C)cc1 (stereo not shown)
11 nM

Return reported IC50; argument: CC1(C)CC2CC(C)(CN2S(=O)(=O)c2ccc(C(C)(C)C)cc2)C1 (stereo not shown)
71 nM

Return reported IC50; argument: CC1(C)CC2CC(C)(CN2S(=O)(=O)c2ccc(Cl)cc2)C1 (stereo not shown)
2480 nM

Return reported IC50; argument: CC(O)c1ccc(S(=O)(=O)N2CC3(C)CC2CC(C)(C)C3)cc1 (stereo not shown)
67 nM

Return reported IC50; argument: CCCCc1ccc(S(=O)(=O)N2CC3(C)CC2CC(C)(C)C3)cc1 (stereo not shown)
950 nM

Return reported IC50; argument: COc1ccc(CNC(=O)N2CCC(c3nc(C(=O)N4CCCC5CCCCC54)cs3)CC2)cc1 (stereo not shown)
500 nM

Return reported IC50; argument: COc1ccc(S(=O)(=O)N2CCC=C(c3ccccc3)CC2)cc1
1880 nM
